Target of assay: UniProtKB P9WMN1
Sequence (whole entry): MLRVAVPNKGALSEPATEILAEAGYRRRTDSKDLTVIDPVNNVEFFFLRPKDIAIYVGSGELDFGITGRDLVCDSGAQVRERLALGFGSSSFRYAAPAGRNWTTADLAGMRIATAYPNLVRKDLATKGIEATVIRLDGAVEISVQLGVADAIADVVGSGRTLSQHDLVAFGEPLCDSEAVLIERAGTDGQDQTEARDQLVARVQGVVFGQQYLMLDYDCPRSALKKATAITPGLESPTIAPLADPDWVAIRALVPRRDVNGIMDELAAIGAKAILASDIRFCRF
Test: Inhibition of Mycobacterium tuberculosis HisG assessed as phosphoribosyl ATP production at 10 uM by spectrophotometry
Given measured inhibition, output Condition met if it is greater than or equal to 50% and Condition not met if not.

Query: Is reported inhibition greater than or equal to 50% here: CN(CC(=O)O)c1nc2cc([N+](=O)[O-])ccc2s1
Reply: Condition not met

Query: Is reported inhibition greater than or equal to 50% here: O=[N+]([O-])c1ccc(Nc2cc(Nc3cccc(O)c3)c3nonc3c2[N+](=O)[O-])c(O)c1
Reply: Condition not met

Query: Is reported inhibition greater than or equal to 50% here: O=C(CSc1nnc(-c2ccccc2)c(-c2ccccc2)n1)Cc1nccs1
Reply: Condition met

Next:
Query: Is reported inhibition greater than or equal to 50% here: Nc1nc(SCc2ccccc2)c(N)c(SCc2ccccc2)n1
Reply: Condition not met

Query: Is reported inhibition greater than or equal to 50% here: O=C(NNC(=O)c1cc([N+](=O)[O-])cc([N+](=O)[O-])c1Br)Nc1ccccc1
Reply: Condition met

Query: Is reported inhibition greater than or equal to 50% here: CCOC(=O)C(=O)Nc1nc2ccc([N+](=O)[O-])cc2s1
Reply: Condition not met

Query: Is reported inhibition greater than or equal to 50% here: Cc1cc(/N=N/c2ccc(S(=O)(=O)O)cc2)c(N)c(/N=N/c2ccc(S(=O)(=O)O)cc2)c1N
Reply: Condition not met

Query: Is reported inhibition greater than or equal to 50% here: COc1cc(C2C(C(=O)c3ccc(Cl)cc3)=C(O)C(=O)N2Cc2cccnc2)cc(OC)c1OC (stereo unspecified)
Reply: Condition not met

Query: Is reported inhibition greater than or equal to 50% here: O=C(CC(NC(=O)c1ccccc1)c1ccccc1)Nc1nc2ccc([N+](=O)[O-])cc2s1 (stereo unspecified)
Reply: Condition met

----------
Target of assay: ATP phosphoribosyltransferase (Mycobacterium tuberculosis, UniProt P9WMN1)
Test: Inhibition of Mycobacterium tuberculosis HisG assessed as phosphoribosyl ATP production by spectrophotometry
Property: IC50; scope: individual compounds
Use µM as the unit, but write only the number.

Query: I would be grateful if you could share the reported IC50 for O=[N+]([O-])c1ccc2c(/N=N/c3ccc4ccccc4c3O)c(O)cc(S(=O)(=O)O)c2c1 .
Reply: 10

Query: I would be grateful if you could share the reported IC50 for CCOC(=O)C(=O)Nc1nc2ccc([N+](=O)[O-])cc2s1 .
Reply: 13.9

Next:
Query: I would be grateful if you could share the reported IC50 for O=C(CC(NC(=O)c1ccccc1)c1ccccc1)Nc1nc2ccc([N+](=O)[O-])cc2s1 (configuration not stated) .
Reply: 6

Query: I would be grateful if you could share the reported IC50 for O=[N+]([O-])c1ccc(Nc2cc(Nc3cccc(O)c3)c3nonc3c2[N+](=O)[O-])c(O)c1 .
Reply: 11.9

Query: I would be grateful if you could share the reported IC50 for COc1ccc(COC(=O)C2=C(C)NC3=C(C(=O)CC(c4cccs4)C3)C2c2cccs2)cc1 (configuration not stated) .
Reply: 10

Query: I would be grateful if you could share the reported IC50 for O=C(CSc1nnc(-c2ccccc2)c(-c2ccccc2)n1)Cc1nccs1 .
Reply: 4

Query: I would be grateful if you could share the reported IC50 for O=C(NNC(=O)c1cc([N+](=O)[O-])cc([N+](=O)[O-])c1Br)Nc1ccccc1 .
Reply: 5.5
